Biological target: T1, EAT-2 (recombinant full-length human EAT-2) (human, UniProt O14796 1-132)
T1 construct: EAT-2, human, full length; source: E. coli BL21(DE3)pLysS, purified (Co2+ or Ni2+ column, size exclusion chromatography)
T1 sequence (looked up): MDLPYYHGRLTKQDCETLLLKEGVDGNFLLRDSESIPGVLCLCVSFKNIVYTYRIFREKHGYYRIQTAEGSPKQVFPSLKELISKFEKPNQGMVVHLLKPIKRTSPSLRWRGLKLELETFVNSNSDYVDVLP
Test: SPR; biotinylated phosphopeptides immobilised on streptavidin chip (about 25 RU single, 50 RU tandem motifs); soluble recombinant protein injected; 37°C; HBS-EP; equilibrium binding (Table 4; same-day purification not given)
Settings: both partners purified
Non-standard residues stand in square brackets, D forms with d. No end group written: not given here. *: point of attachment. Biotin = O=C1N[C@H]2[C@H](CS[C@H]2CCCCC(=O)*)N1; pY = N[C@@H](Cc1ccc(OP(=O)(O)O)cc1)C(=O)O
measuredProperty: Kd (nM)
Give bare numbers, in nM.

Task item: What does the record list as Kd for Biotin-EFLTI[pY]EDVKD (CD244 (SLAMF4), human, cytoplasmic ITSM1; also called SLAMF4 ITSM1; source: synthetic peptide (Peptide Protein Research Ltd)) [CD244 ITSM1 phosphopeptide (Biotin-EFLTIpYEDVKD)] ?
Reply: 60
